Cited source for all entries: patent US8299086B2

Biological target: recombinant human S1P1 receptor (Homo sapiens)
Sequence (P21453 whole entry): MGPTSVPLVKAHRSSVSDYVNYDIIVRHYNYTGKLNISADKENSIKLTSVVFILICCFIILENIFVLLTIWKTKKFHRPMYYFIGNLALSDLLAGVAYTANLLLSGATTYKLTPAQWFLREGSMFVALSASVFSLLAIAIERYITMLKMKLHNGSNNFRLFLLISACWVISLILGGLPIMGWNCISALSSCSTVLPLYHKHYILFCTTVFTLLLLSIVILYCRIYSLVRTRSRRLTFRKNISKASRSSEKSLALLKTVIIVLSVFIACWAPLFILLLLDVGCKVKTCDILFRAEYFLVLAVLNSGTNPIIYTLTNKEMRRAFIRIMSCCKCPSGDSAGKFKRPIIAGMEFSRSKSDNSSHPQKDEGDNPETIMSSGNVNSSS
Test: GTPγS assay to determine EC50 values
Format: biochemical
Settings: 35S-GTPγS binding, membranes of CHO cells expressing recombinant human S1P1 receptor, pH 7.4
pEC50: −log10 of the molar value.
Measured pEC50, listed per entry.
endpoint.name: pEC50

compound | endpoint.name | obs.value
CCc1cc(-c2noc(-c3cc(C)nc(NC(C)C)n3)n2)cc(C)c1CCC(=O)NCC(O)CO (centres unmarked) [Example 140] | pEC50 | 7.90
CCc1cc(-c2noc(-c3cc(C)nc(N(CC)CC)n3)n2)cc(C)c1OC[C@@H](O)CNS(=O)(=O)CC [Example 117] | pEC50 | 7.65
CCc1cc(-c2nnc(-c3cc(C)nc(OC(C)C)n3)o2)cc(C)c1OC[C@@H](O)CNC(=O)CO [Example 89] | pEC50 | 7.40
Cc1cc(-c2nc(-c3cc(C)c(OC[C@@H](O)CNC(=O)CO)c(C)c3)no2)nc(OCC(C)C)n1 [Example 46] | pEC50 | 8.43
Cc1cc(-c2nc(-c3ccc(CC(O)CNCCO)cc3)no2)nc(NC(C)C)n1 (centres unmarked) [Example 154] | pEC50 | 6.48
Cc1cc(-c2nc(-c3cc(C)c(OC[C@@H](O)CO)c(Cl)c3)no2)nc(OC(C)C)n1 [Example 81] | pEC50 | 8.13
CCc1cc(-c2noc(-c3cc(C)nc(NCC(C)C)n3)n2)cc(C)c1OC[C@@H](O)CNC(=O)CO [Example 2] | pEC50 | 8.92
CCNc1nc(C)cc(-c2nc(-c3cc(C)c(OCC(O)CNC(=O)CO)c(C)c3)no2)n1 (racemic) [Example 4] | pEC50 | 9.34

###

Molecular target: recombinant human S1P1 receptor (Homo sapiens)
Assay: GTPγS assay to determine EC50 values
Type: biochemical
Conditions: 35S-GTPγS binding, membranes of CHO cells expressing recombinant human S1P1 receptor, pH 7.4
# note: exactly 6 nM is not below, so it is false (0); use true (1) for EC50 strictly under it

molecule | answer.label
CCc1cc(-c2noc(-c3cc(C)nc(N(CC)CC)n3)n2)cc(C)c1OCCN1CCC(C(=O)O)C1 (stereo not shown) [Example 109] | false (0)
CCN(CC)c1nc(C)cc(-c2nc(-c3ccc(CC(=O)N4CC(C(=O)O)C4)cc3)no2)n1 [Example 131] | false (0)
CCc1cc(-c2nc(-c3cc(C)nc(N(C)CC(C)C)n3)no2)cc(C)c1OC[C@@H](O)CNC(=O)CO [Example 86] | true (1)
Cc1cc(-c2nc(-c3ccc(C(O)CN)cc3)no2)nc(NC(C)C)n1 (racemic) [Example 144] | false (0)
CCc1cc(-c2noc(-c3cc(C)nc(NC4CC4)n3)n2)cc(C)c1OC[C@@H](O)CNC(=O)CO [Example 31] | true (1)
CCOc1nc(CC)cc(-c2nc(-c3cc(C)c(OC[C@@H](O)CNC(=O)CO)c(CC)c3)no2)n1 [Example 41] | true (1)
CCc1cc(-c2noc(-c3cc(C)nc(NC(C)C)n3)n2)cc(C)c1CCC(=O)NCCC(=O)O [Example 134] | true (1)
CCc1cc(-c2noc(-c3cc(C)nc(N(CC)CC)n3)n2)cc(C)c1OCCNC(=O)CN [Example 112] | false (0)
CCc1cc(-c2noc(-c3cc(C)nc(N(CC)CC)n3)n2)cc(C)c1OC(CO)CO [Example 100] | true (1)
COc1cc(-c2noc(-c3cc(C)nc(NC(C)C)n3)n2)cc(C)c1OC[C@@H](O)CO [Example 78] | true (1)
CCc1cc(-c2nnc(-c3cc(C)nc(OCC(C)C)n3)s2)cc(C)c1OC[C@@H](O)CO [Example 99] | false (0)
CCc1cc(-c2noc(-c3cc(C)nc(N(CC)CC)n3)n2)cc(C)c1OCCNCCO [Example 103] | false (0)
CCN(CC)c1nc(C)cc(-c2nc(-c3ccc(CCNS(C)(=O)=O)cc3)no2)n1 [Example 128] | false (0)
CCCOc1nc(C)cc(-c2nc(-c3cc(C)c(OCC(O)CNC(=O)CO)c(C)c3)no2)n1 (racemic) [Example 14] | false (0)
Cc1cc(-c2nc(-c3ccc(CC(O)CO)cc3)no2)nc(NC(C)C)n1 (racemic) [Example 149] | false (0)
Cc1cc(-c2nc(-c3cc(C)c(OC[C@@H](O)CNC(=O)CO)c(Cl)c3)no2)nc(OC(C)C)n1 [Example 54] | true (1)
